Read-out record for Factor XIa (Homo sapiens): pKi
One number for each entry, as −log10 of the molar value.

| Compound | pKi |
| --- | --- |
| CC(=N)N1CC[C@H](Oc2ccc([C@H](Cc3ccc4ccc(C(=N)N)cc4c3)C(=O)O)cc2)C1 [DX-9065a] | 5.64 |

Below are some compounds; for each one, tell me its pKi.
1. COC(=O)[C@H](Cc1cccc(C(=N)N)c1)[C@@H](C)NC(=O)c1ccc(-c2cc[n+]([O-])cc2)cc1 (mixture of isomers)
2. N=C(N)c1ccc(C=C2CCCCC(=Cc3ccc(C(=N)N)cc3)C2=O)cc1
3. N=C(N)NCCC[C@@H](NS(=O)(=O)Cc1ccccc1)C(=O)NCC(=O)NCc1ccc(C(=N)N)cc1

4.64
4.38
6.10

The reported measurements were obtained from patent US8129547B2.
